# System: SMMC-7721
# Method Summary: Cytotoxicity against human SMMC7721 cells after 48 hrs by MTS assay
# Assay type: functional, cell-based
# Conditions Used: SMMC-7721, 48 h
Measurement Name: pIC50
By convention, pIC50 is the negative base-10 log of a molar concentration.

C=C1C(=O)[C@]23C[C@H]1C[C@H](O)[C@H]2[C@@]12CO[C@@]3(O)C[C@@H]1C(C)(C)CC[C@@H]2O | 5.04
C=C1C(=O)[C@]23C[C@H]1CC[C@H]2[C@]12CC[C@@H](O)[C@@](C)(COC(C)=O)[C@H]1[C@H](O)[C@]3(O)OC2 | 4.85

# next compound below
Q. Requested field: pIC50. Item: C=C1C(=O)[C@]23C[C@H]1CC[C@H]2[C@@]12CO[C@@]3(O)[C@@H](O)[C@@H]1[C@](C)(COC(C)=O)CC[C@@H]2OC(C)=O
A. 5.69

###

# System: SMMC-7721
# Method Summary: Cytotoxicity against human SMMC7721 cells after 48 hrs by MTS assay
# Assay type: functional, cell-based
# Conditions Used: SMMC-7721, 48 h
Recorded IC50 by entry

For orientation, consider the following solved cases.
COC[C@@H]1C(=O)[C@]23[C@H](O)[C@H]1[C@@H](O)C[C@H]2[C@]12CCC[C@@](C)(CO)[C@H]1[C@H](O)[C@]3(O)OC2 | > 10 µM
COC[C@H]1C(=O)[C@]23C[C@H]1CC[C@H]2[C@@]12CO[C@@]3(O)[C@@H](O)[C@@H]1[C@](C)(COC(C)=O)CC[C@@H]2O (mixture of isomers) | 12.3 µM

Next, consider the following compound.
Q. Quick check: IC50 of C=C1C(=O)[C@]23[C@H](O)[C@H]1CC[C@H]2[C@]12CC[C@@H](OC(C)=O)[C@@](C)(CO)[C@H]1[C@H](O)[C@]3(O)OC2 ?
A. > 10 µM

###

# Test system: SMMC-7721
# Method Summary: Cytotoxicity against human SMMC7721 cells after 48 hrs by MTS assay
# Type: functional, cell-based
# Conditions Used: SMMC-7721, 48 h
Measurement Name: IC50

COC[C@@H]1C(=O)[C@]23C[C@H]1CC[C@H]2[C@@]12CO[C@@]3(O)[C@@H](O)[C@@H]1C(C)(C)CC[C@@H]2OC(C)=O (single isomer, unassigned) | > 10 µM

Q. Need IC50 of C=C1C(=O)[C@]23[C@H](O)[C@H]1CC[C@H]2[C@@]12CO[C@@]3(O)[C@@H](O)[C@@H]1[C@](C)(COC(C)=O)CC[C@@H]2O , thanks.
A. > 10 µM

Q. What does the data say about its IC50? Entry: C=C1[C@@H](O)[C@]23[C@H](O)[C@H]1CC[C@H]2[C@@]12CO[C@@]3(O)[C@@H](O)[C@@H]1[C@](C)(COC(C)=O)CC[C@@H]2O
A. > 10 µM

Q. Reported IC50 for C=C1[C@@H](O)[C@]23[C@H](O)[C@H]1C[C@H](OC(C)=O)[C@H]2[C@]12CCC[C@@](C)(COC(C)=O)[C@H]1[C@H](OC(C)=O)[C@]3(O)O[C@@H]2O (relative stereo) : what is it?
A. 2.69 µM

Q. Any idea what IC50 was measured for C=C1[C@@H](O)[C@]23[C@H](O)[C@H]1C[C@H](OC(C)=O)[C@H]2[C@]12CCC[C@@](C)(COC(C)=O)[C@H]1[C@H](O)[C@]3(O)O[C@@H]2O (relative stereo) ?
A. > 10 µM

Q. Bench note: what IC50 did COC[C@H]1C(=O)[C@]23C[C@H]1CC[C@H]2[C@@]12CO[C@@]3(O)[C@@H](O)[C@@H]1C(C)(C)CC[C@@H]2OC(C)=O (relative stereo) show?
A. 3.99 µM

Q. Recorded IC50 of C=C1[C@@H]2C[C@H](O)[C@H]3[C@@]45CO[C@@](O)([C@@H](O)[C@@H]4C(C)(C)CC[C@@H]5OC(C)=O)[C@]3(C2)[C@@H]1O , please.
A. > 10 µM

Q. Suppose we examine the compound COC[C@@H]1C(=O)[C@]23[C@H](O)[C@H]1CC[C@H]2[C@@]12CO[C@@]3(O)[C@@H](O)[C@@H]1[C@](C)(CO)CC[C@@H]2O (relative stereo) ; what IC50 value has been reported?
A. > 10 µM

Q. Returns the measured IC50 for the input compound. Input: C=C1C(=O)[C@]23[C@H](O)[C@H]1[C@@H](O)C[C@H]2[C@]12CCC[C@@](C)(CO)[C@H]1[C@H](O)[C@]3(O)OC2
A. > 10 µM

Q. Name the reported IC50 value associated with the compound C=C1[C@@H](O)[C@]23[C@H](O)[C@H]1C[C@H](OC(C)=O)[C@H]2[C@]12CCCC(C)(C)[C@H]1[C@H](O)[C@]3(O)O[C@@H]2OCC (relative stereo)
A. > 10 µM

Q. IC50 lookup needed for C=C1[C@H]2C[C@@]3([C@@H]1O)[C@@H](C[C@@H]2O)[C@]12CCC[C@@](C)(COC(C)=O)[C@H]1[C@H](O)[C@]3(O)OC2 , thanks.
A. > 10 µM

Q. Query: IC50; subject: C=C1C(=O)[C@]23[C@H](O)[C@H]1CC[C@H]2[C@]12CC[C@@H](O)[C@@](C)(CO)[C@H]1[C@H](O)[C@]3(O)OC2
A. > 10 µM

Q. Item under review: CC(=O)O[C@H]1C(=O)[C@@]2(C)[C@H]([C@H](OC(=O)c3ccccc3)[C@]3(O)C[C@H](OC(=O)[C@H](O)[C@@H](NC(=O)c4ccccc4)c4ccccc4)C(C)=C1C3(C)C)[C@]1(OC(C)=O)CO[C@@H]1C[C@@H]2O [PACLITAXEL] . Reported IC50?
A. < 0.008 µM

Q. Name the recorded IC50 for COC[C@H]1C(=O)[C@]23C[C@@H]1CC[C@H]2[C@@]12CO[C@]3(O)[C@@H](O)[C@@H]1C(C)(C)CC[C@@H]2O .
A. 14.6 µM

###

Below: a set of entries, each annotated with reported IC50.
# Tested on: SMMC-7721
# Method Summary: Cytotoxicity against human SMMC7721 cells after 48 hrs by MTS assay
# Type: functional, cell-based
# Conditions Used: SMMC-7721, 48 h

// below: answered molecules
C=C1C(=O)[C@]23[C@H](O)[C@H]1CC[C@H]2[C@]12CC[C@@H](O)[C@@](C)(COC(C)=O)[C@H]1[C@H](O)[C@]3(O)OC2 | > 10 µM
C=C1C(=O)[C@]23C[C@H]1C[C@@H](OC(C)=O)[C@H]2[C@@]12CO[C@@]3(O)[C@@H](O)[C@@H]1C(C)(C)CC[C@@H]2O | 12.7 µM
C=C1C(=O)[C@]23[C@H](O)[C@H]1CC[C@H]2[C@@]12CO[C@@]3(O)[C@@H](O)[C@@H]1[C@](C)(CO)CC[C@@H]2O | > 10 µM

Please examine the following record next.
Q. Fill in: IC50 of C=C1[C@@H](O)[C@]23[C@H](O)[C@H]1C[C@H](OC(C)=O)[C@H]2[C@]12CCCC(C)(C)[C@H]1[C@H](O)[C@]3(O)O[C@@H]2O (relative stereo) is ___
A. > 10 µM
